- Test system: Streptococcus pyogenes
- assay_remarks: The compound was tested in vitro for minimum inhibitory concentration against Streptococcus pyogenes
- Format: functional
Below is a list of entries, each paired with its recorded MIC value.
Write the number in µg/mL without appending the unit.

| compound | subject_of_test | quantitative_readout |
| --- | --- | --- |
| N#CCC(=O)N[C@@H]1C(=O)N2C(C(=O)O)=C(COC(=O)N3CCN(c4cc5c(cc4F)c(=O)c(C(=O)O)cn5C4CC4)CC3)CS[C@H]12 | Streptococcus pyogenes | 0.031 |

Query block: Fill in the recorded MIC for this compound, with Streptococcus pyogenes as test system: NC(=O)CO/N=C(\C(=O)N[C@@H]1C(=O)N2C(C(=O)O)=C(COC(=O)N3CCN(c4cc5c(cc4F)c(=O)c(C(=O)O)cn5C4CC4)CC3)CS[C@H]12)c1csc(N)n1
Result block: 0.031

Query block: Note, next up: O=CN[C@@H]1C(=O)N2C(C(=O)O)=C(COC(=O)N3CCN(c4cc5c(cc4F)c(=O)c(C(=O)O)cn5C4CC4)CC3)CS[C@H]12
Result block: 0.125

Query block: Note, next up: O=C(O)c1cn(C2CC2)c2cc(N3CCNCC3)c(F)cc2c1=O
Result block: 0.5

Query block: Note, next up: CC(=O)OCC1=C(C(=O)O)N2C(=O)[C@@H](NC(=O)COc3ccccc3)[C@H]2SC1
Result block: 0.125

====

Below is a list of entries, each paired with its recorded MIC value.
- System: Escherichia coli
- assay_remarks: Minimum inhibitory concentration required to inhibit the activity of Escherichia coli UB1005
- Assay type: functional
Write the number in µg/mL without appending the unit.

| compound | subject_of_test | readout_name | uom | quantitative_readout |
| --- | --- | --- | --- | --- |
| Nc1nc(/C(=N/OCC(=O)O)C(=O)N[C@@H]2C(=O)N3C(C(=O)O)=C(COC(=O)N4CCN(c5cc6c(cc5F)c(=O)c(C(=O)O)cn6C5CC5)CC4)CS[C@H]23)cs1 | Escherichia coli | MIC | µg/mL | 1 |
| O=C(O)C1=C(COC(=O)N2CCN(c3cc4c(cc3F)c(=O)c(C(=O)O)cn4C3CC3)CC2)CS[C@@H]2[C@H](NC(=O)C(O)c3ccccc3)C(=O)N12 (some centres undefined) | Escherichia coli | MIC | µg/mL | 1 |
| CC(C)(O/N=C(\C(=O)N[C@@H]1C(=O)N2C(C(=O)O)=C(COC(=O)N3CCN(c4cc5c(cc4F)c(=O)c(C(=O)O)cn5C4CC4)CC3)CS[C@H]12)c1csc(N)n1)C(=O)O | Escherichia coli | MIC | µg/mL | 1 |

Now, please, on to the next compound.
Query block: For the compound shown here, N#CCC(=O)N[C@@H]1C(=O)N2C(C(=O)O)=C(COC(=O)N3CCN(c4cc5c(cc4F)c(=O)c(C(=O)O)cn5C4CC4)CC3)CS[C@H]12 , give the reported MIC.
Result block: 1

====

Below is a list of entries, each paired with its recorded Inhibitory concentration value.
- Tested on: Escherichia coli
- assay_remarks: The compound was evaluated for the inhibition of [14C]- Pen G binding to Escherichia coli UB1005 penicillin-binding protein 1a 90 kDa.
Write the number in µg/mL without appending the unit.

Reference set, count: 3
| molecular_string | uom | Inhibitory concentration |
| --- | --- | --- |
| CC(=O)OCC1=C(C(=O)O)N2C(=O)[C@@H](NC(=O)COc3ccccc3)[C@H]2SC1 | µg/mL | 0.5 |
| Nc1nc(/C(=N/OCC(=O)O)C(=O)N[C@@H]2C(=O)N3C(C(=O)O)=C(COC(=O)N4CCN(c5cc6c(cc5F)c(=O)c(C(=O)O)cn6C5CC5)CC4)CS[C@H]23)cs1 | µg/mL | 100 |
| NC(=O)CO/N=C(\C(=O)N[C@@H]1C(=O)N2C(C(=O)O)=C(COC(=O)N3CCN(c4cc5c(cc4F)c(=O)c(C(=O)O)cn5C4CC4)CC3)CS[C@H]12)c1csc(N)n1 | µg/mL | 2 |

Now, please, on to the next compound.
Query block: For the compound shown here, CC(C)(O/N=C(\C(=O)N[C@@H]1C(=O)N2C(C(=O)O)=C(COC(=O)N3CCN(c4cc5c(cc4F)c(=O)c(C(=O)O)cn5C4CC4)CC3)CS[C@H]12)c1csc(N)n1)C(=O)O , give the reported Inhibitory concentration.
Result block: 100

====

- Test system: Escherichia coli
- assay_remarks: The compound was evaluated for the inhibition of [14C]- Pen G binding to Escherichia coli UB1005 penicillin-binding protein 3 60 kDa.
Below is a list of entries, each paired with its recorded Inhibitory concentration value.
Write the number in µg/mL without appending the unit.

| compound | Inhibitory concentration / µg/mL |
| --- | --- |
| CC(=O)OCC1=C(C(=O)O)N2C(=O)[C@@H](NC(=O)COc3ccccc3)[C@H]2SC1 | 10 |
| CO/N=C(\C(=O)N[C@@H]1C(=O)N2C(C(=O)O)=C(COC(=O)N3CCN(c4cc5c(cc4F)c(=O)c(C(=O)O)cn5C4CC4)CC3)CS[C@H]12)c1csc(N)n1 | 0.5 |
| N#CCC(=O)N[C@@H]1C(=O)N2C(C(=O)O)=C(COC(=O)N3CCN(c4cc5c(cc4F)c(=O)c(C(=O)O)cn5C4CC4)CC3)CS[C@H]12 | 100 |
| CCN1CCN(C(=O)NC(C(=O)N[C@@H]2C(=O)N3C(C(=O)O)=C(COC(=O)N4CCN(c5cc6c(cc5F)c(=O)c(C(=O)O)cn6C5CC5)CC4)CS[C@H]23)c2ccccc2)C(=O)C1=O (stereo not given in full) | 0.5 |

Now, please, on to the next compound.
Query block: For the compound shown here, O=CN[C@@H]1C(=O)N2C(C(=O)O)=C(COC(=O)N3CCN(c4cc5c(cc4F)c(=O)c(C(=O)O)cn5C4CC4)CC3)CS[C@H]12 , give the reported Inhibitory concentration.
Result block: 100

====

Below is a list of entries, each paired with its recorded MIC value.
- System: Pseudomonas aeruginosa
- assay_remarks: The compound was tested in vitro for minimum inhibitory concentration against Pseudomonas aeruginosa 18S/H
- Type: functional
Write the number in µg/mL without appending the unit.

Reference set, count: 2
| compound | subject_of_test | MIC, µg/mL |
| --- | --- | --- |
| O=C(O)C1=C(COC(=O)N2CCN(c3cc4c(cc3F)c(=O)c(C(=O)O)cn4C3CC3)CC2)CS[C@@H]2[C@H](NC(=O)C(O)c3ccccc3)C(=O)N12 (stereo partly drawn) | Pseudomonas aeruginosa | 0.5 |
| CO/N=C(\C(=O)N[C@@H]1C(=O)N2C(C(=O)O)=C(COC(C)=O)CS[C@H]12)c1csc(N)n1 [CEFOTAXIME] | Pseudomonas aeruginosa | 128 |

Query block: For the compound shown here, CCN1CCN(C(=O)NC(C(=O)N[C@@H]2C(=O)N3C(C(=O)O)=C(COC(=O)N4CCN(c5cc6c(cc5F)c(=O)c(C(=O)O)cn6C5CC5)CC4)CS[C@H]23)c2ccccc2)C(=O)C1=O (stereo partly drawn) , give the reported MIC.
Result block: 1

====

Below is a list of entries, each paired with its recorded Inhibitory concentration value.
- Test system: Escherichia coli
- assay_remarks: The compound was evaluated for the inhibition of [14C]- Pen G binding to Escherichia coli UB1005 penicillin-binding protein 1a 90 kDa.

| compound | Inhibitory concentration |
| --- | --- |
| O=C(COc1ccccc1)N[C@@H]1C(=O)N2C(C(=O)O)=C(COC(=O)N3CCN(c4cc5c(cc4F)c(=O)c(C(=O)O)cn5C4CC4)CC3)CS[C@H]12 | > 100 µg/mL |
| CO/N=C(\C(=O)N[C@@H]1C(=O)N2C(C(=O)O)=C(COC(=O)N3CCN(c4cc5c(cc4F)c(=O)c(C(=O)O)cn5C4CC4)CC3)CS[C@H]12)c1csc(N)n1 | 100 µg/mL |
| CCN1CCN(C(=O)NC(C(=O)N[C@@H]2C(=O)N3C(C(=O)O)=C(COC(=O)N4CCN(c5cc6c(cc5F)c(=O)c(C(=O)O)cn6C5CC5)CC4)CS[C@H]23)c2ccccc2)C(=O)C1=O (some centres undefined) | 10 µg/mL |

Now, please, on to the next compound.
Query block: For the compound shown here, O=CN[C@@H]1C(=O)N2C(C(=O)O)=C(COC(=O)N3CCN(c4cc5c(cc4F)c(=O)c(C(=O)O)cn5C4CC4)CC3)CS[C@H]12 , give the reported Inhibitory concentration.
Result block: > 100 µg/mL

====

- Test system: Pseudomonas aeruginosa
- assay_remarks: The compound was tested in vitro for minimum inhibitory concentration against Pseudomonas aeruginosa 18S/H
- Format: functional
Below is a list of entries, each paired with its recorded MIC value.
Write the number in µg/mL without appending the unit.

Reference set, count: 4
| molecular_string | quantitative_readout |
| --- | --- |
| N#CCC(=O)N[C@@H]1C(=O)N2C(C(=O)O)=C(COC(=O)N3CCN(c4cc5c(cc4F)c(=O)c(C(=O)O)cn5C4CC4)CC3)CS[C@H]12 | 0.5 |
| O=C(COc1ccccc1)N[C@@H]1C(=O)N2C(C(=O)O)=C(COC(=O)N3CCN(c4cc5c(cc4F)c(=O)c(C(=O)O)cn5C4CC4)CC3)CS[C@H]12 | 0.5 |
| NC(=O)CO/N=C(\C(=O)N[C@@H]1C(=O)N2C(C(=O)O)=C(COC(=O)N3CCN(c4cc5c(cc4F)c(=O)c(C(=O)O)cn5C4CC4)CC3)CS[C@H]12)c1csc(N)n1 | 1 |
| O=CN[C@@H]1C(=O)N2C(C(=O)O)=C(COC(=O)N3CCN(c4cc5c(cc4F)c(=O)c(C(=O)O)cn5C4CC4)CC3)CS[C@H]12 | 1 |

Query block: For the molecule shown here, CC(C)(O/N=C(\C(=O)N[C@@H]1C(=O)N2C(C(=O)O)=C(COC(=O)N3CCN(c4cc5c(cc4F)c(=O)c(C(=O)O)cn5C4CC4)CC3)CS[C@H]12)c1csc(N)n1)C(=O)O , give the reported MIC.
Result block: 1

Query block: Note, next up: Nc1nc(/C(=N/OCC(=O)O)C(=O)N[C@@H]2C(=O)N3C(C(=O)O)=C(COC(=O)N4CCN(c5cc6c(cc5F)c(=O)c(C(=O)O)cn6C5CC5)CC4)CS[C@H]23)cs1
Result block: 1

Query block: Note, next up: CO/N=C(\C(=O)N[C@@H]1C(=O)N2C(C(=O)O)=C(COC(=O)N3CCN(c4cc5c(cc4F)c(=O)c(C(=O)O)cn5C4CC4)CC3)CS[C@H]12)c1csc(N)n1
Result block: 1
